Recorded protein stability index values for a group of variants are listed next.
B1: ZNF511 (parent)
chain: FDALDDYEHHYHTLHGNVCSFCKR

- Variants of: B1
- procedure text: protein stability index of a GFP-peptide fusion (GPS, HEK-293T) (PSI 1-6); higher = more stable;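 also: lentivirally expressed fusions sorted by FACS into six bins by GFP to DsRed ratio, PSI derived from sequencing read proportions per bin multiplied by bin number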
- stated conditions: c terminus: a fixed tail appended

| mutation annotation | protein stability index |
| --- | --- |
| E8N | 3.3 |
| T13R | 3.07 |
| L14G | 4.22 |
| F1W | 3.7 |
| F1C | 4.38 |
| D5F | 2.5 |
| F1D | 4.31 |
| F1G | 3.74 |
| N17G | 3.64 |
| C22F | 2.2 |
| G16S | 3.37 |
| E8M | 2.97 |
| S20V | 3.64 |
| L14D | 4.33 |
| K23E | 3.97 |
| D5C | 4 |
| C19T | 3.41 |
| E8H | 3.63 |
| K23S | 3.6 |
| C22N | 3.22 |
| R24L | 3.35 |
| D6Q | 3.56 |
| H9C | 4.26 |
| L14V | 4.53 |
| D2H | 2.17 |
| H9S | 3.44 |
| D5K | 3.09 |
| H9G | 4 |
| L14F | 3.59 |
| F21R | 4.55 |
| V18E | 4.36 |
| K23L | 3.03 |
| L4H | 4.48 |
| L14H | 4.24 |
| F1I | 3.43 |
| H15V | 3.73 |
| S20P | 3.54 |
| L4F | 4 |
| H9E | 3.71 |
| L4S | 4.6 |
| T13N | 3.56 |
| N17H | 3.64 |
| S20D | 2.75 |
| F21C | 3.59 |
| C22P | 3 |
| A3H | 3.63 |
